Data provenance is patent US9670142B2.

MEASURED ON: UniProtKB P49327
Sequence (P49327 whole entry): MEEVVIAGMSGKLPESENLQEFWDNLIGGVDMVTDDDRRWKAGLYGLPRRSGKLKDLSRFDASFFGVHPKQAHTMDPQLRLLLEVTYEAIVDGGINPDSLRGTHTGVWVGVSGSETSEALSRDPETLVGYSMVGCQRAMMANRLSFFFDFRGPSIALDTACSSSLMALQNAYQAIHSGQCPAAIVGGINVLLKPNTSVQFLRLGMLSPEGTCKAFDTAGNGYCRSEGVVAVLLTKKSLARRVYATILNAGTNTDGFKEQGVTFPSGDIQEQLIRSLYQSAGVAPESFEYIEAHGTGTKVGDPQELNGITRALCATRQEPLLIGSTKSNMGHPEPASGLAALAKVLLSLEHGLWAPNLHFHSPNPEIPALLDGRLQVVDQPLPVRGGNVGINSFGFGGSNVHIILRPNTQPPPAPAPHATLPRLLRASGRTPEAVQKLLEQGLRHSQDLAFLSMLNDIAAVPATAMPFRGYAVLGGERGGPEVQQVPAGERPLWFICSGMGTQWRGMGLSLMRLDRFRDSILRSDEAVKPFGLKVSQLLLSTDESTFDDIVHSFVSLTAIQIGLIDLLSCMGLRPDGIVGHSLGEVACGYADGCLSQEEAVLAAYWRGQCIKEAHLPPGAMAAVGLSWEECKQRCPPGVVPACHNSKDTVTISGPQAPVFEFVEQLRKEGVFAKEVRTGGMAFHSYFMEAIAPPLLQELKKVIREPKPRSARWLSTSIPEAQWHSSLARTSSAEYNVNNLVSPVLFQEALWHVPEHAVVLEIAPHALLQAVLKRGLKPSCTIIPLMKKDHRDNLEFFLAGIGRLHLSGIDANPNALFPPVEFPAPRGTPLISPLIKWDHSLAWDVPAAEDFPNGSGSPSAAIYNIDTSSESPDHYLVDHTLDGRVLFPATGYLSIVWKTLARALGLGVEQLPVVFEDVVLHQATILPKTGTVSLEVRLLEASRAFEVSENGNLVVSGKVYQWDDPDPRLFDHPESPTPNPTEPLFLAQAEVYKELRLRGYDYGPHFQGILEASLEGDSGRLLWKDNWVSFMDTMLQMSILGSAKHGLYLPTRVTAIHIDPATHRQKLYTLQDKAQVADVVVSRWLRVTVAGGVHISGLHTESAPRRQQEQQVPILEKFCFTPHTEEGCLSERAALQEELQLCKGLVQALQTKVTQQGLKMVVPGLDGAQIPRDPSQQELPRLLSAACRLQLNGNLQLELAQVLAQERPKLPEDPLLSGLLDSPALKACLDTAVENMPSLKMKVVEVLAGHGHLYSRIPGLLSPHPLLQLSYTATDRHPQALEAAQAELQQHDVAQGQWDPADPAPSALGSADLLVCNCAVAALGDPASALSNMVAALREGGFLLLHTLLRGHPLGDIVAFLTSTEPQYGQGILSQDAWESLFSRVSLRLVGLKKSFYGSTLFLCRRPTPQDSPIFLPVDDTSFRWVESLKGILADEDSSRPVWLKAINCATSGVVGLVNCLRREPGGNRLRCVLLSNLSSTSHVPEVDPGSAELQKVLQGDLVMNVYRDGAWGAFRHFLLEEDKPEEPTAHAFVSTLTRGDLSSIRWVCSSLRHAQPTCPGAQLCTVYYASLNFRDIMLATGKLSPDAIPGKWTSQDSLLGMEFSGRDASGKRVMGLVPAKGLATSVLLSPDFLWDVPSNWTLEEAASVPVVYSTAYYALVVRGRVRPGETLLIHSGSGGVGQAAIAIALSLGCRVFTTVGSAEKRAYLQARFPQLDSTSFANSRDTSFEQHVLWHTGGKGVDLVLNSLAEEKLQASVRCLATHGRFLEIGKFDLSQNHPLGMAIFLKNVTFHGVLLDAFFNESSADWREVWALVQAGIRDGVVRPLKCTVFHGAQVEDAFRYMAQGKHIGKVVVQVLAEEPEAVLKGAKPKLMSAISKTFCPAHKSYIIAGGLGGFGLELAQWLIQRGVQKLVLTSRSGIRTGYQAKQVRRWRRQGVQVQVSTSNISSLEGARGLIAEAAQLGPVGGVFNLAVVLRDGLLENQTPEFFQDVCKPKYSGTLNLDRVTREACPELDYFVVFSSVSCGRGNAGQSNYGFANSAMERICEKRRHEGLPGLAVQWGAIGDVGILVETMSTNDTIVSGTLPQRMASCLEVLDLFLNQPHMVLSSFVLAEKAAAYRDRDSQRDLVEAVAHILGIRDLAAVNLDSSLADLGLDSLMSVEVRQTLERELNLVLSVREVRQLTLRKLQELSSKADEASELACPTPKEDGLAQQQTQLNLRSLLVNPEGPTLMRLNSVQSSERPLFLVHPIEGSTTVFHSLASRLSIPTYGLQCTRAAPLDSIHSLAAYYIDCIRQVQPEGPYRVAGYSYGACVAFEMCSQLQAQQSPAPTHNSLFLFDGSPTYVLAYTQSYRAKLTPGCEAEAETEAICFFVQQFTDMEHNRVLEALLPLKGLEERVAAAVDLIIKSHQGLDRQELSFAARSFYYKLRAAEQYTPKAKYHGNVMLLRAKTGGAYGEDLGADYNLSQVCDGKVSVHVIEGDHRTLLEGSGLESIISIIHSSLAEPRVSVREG
RUN DESCRIPTION: Biochemical activity testing of human fatty acid synthase FASN (NADPH fluorescence intensity enzyme assay)
EXPERIMENTAL PARAMETERS: human recombinant full-length fatty acid synthase
Below, each entry is listed with its recorded IC50.

Sample answers from the record:
COMPOUND	MEASURED ON	PROPERTY	ENDPOINT VALUE
CN(C(=O)c1ccc(-c2nc3ccc(Cl)cc3o2)cc1)[C@@H]1CC[C@H](NC(=O)[C@@H]2CCCO2)C1 [Compound A138]	UniProtKB P49327	IC50	< 0.3 µM
CCC(=O)N[C@H]1CC[C@@H](N(C)C(=O)c2cnc(-c3ccc4[nH]ccc4c3F)c(F)c2)C1 [Compound A143]	UniProtKB P49327	IC50	< 0.3 µM
CCC(=O)N[C@H]1CC[C@@H](N(C)C(=O)c2ccc(-c3nc4ccccc4o3)cn2)C1 [Compound A16]	UniProtKB P49327	IC50	< 0.3 µM

May I ask what IC50 has been recorded for CCC(=O)N[C@H]1CC[C@@H](N(C)C(=O)c2ncc(-c3ccc4[nH]ccc4c3)cn2)C1 [Compound A131] ? < 0.3 µM

May I ask what IC50 has been recorded for CCC(=O)N[C@H]1CC[C@@H](N(C)C(=O)c2ccc(-c3ccc4[nH]ccc4c3)cc2)C1 [Compound A95] ? < 0.3 µM

May I ask what IC50 has been recorded for CCC(=O)N[C@H]1CC[C@@H](N(C)C(=O)c2ccc(-c3ccc(C(C)(C)C)cc3)cc2)C1 [Compound A55] ? 3 to 50 µM

May I ask what IC50 has been recorded for CCC(=O)N[C@H]1CC[C@@H](N(C)C(=O)c2ccc(-c3ccc4[nH]ccc4c3)nc2)C1 [Compound A117] ? < 0.3 µM

May I ask what IC50 has been recorded for CN(C(=O)c1ccc(-c2nc3ccccc3o2)cc1)[C@@H]1CC[C@H](NC(=O)C2CC2)C1 [Compound A2] ? < 0.3 µM

May I ask what IC50 has been recorded for CCC(=O)N[C@H]1CC[C@@H](N(C)C(=O)c2ccc(-c3ccc4c(c3)NC(=O)C4)cc2)C1 [Compound A60] ? < 0.3 µM

May I ask what IC50 has been recorded for CCC(=O)N[C@H]1CC[C@@H](N(C)C(=O)c2ccc(-c3ccc4[nH]ccc4c3F)nc2)C1 [Compound A135] ? < 0.3 µM

May I ask what IC50 has been recorded for CCC(=O)N[C@H]1CC[C@@H](N(C)C(=O)c2ccc(-c3ccc(Cl)cc3F)cc2)C1 [Compound A92] ? < 0.3 µM
